- TARGET_OR_TEST_SYSTEM: LXRβ (Homo sapiens, UniProt P55055)
- Construct: Co-transfection expression plasmids, comprising full-length LXRα (pCMX-h LXRα[…] or LXRβ (pCMX-hLXRβ))
- EXPERIMENT_NOTES: Co-transfection assay (LXRE luciferase reporter), LXRβ
- MEASUREMENT_SETUP: CV-1 cells transfected with pCMX-hLXRβ and LXREx1-Tk-Luciferase; 20 hours incubation
OBSERVED_PROPERTY: EC50 (nM)
The response must be a number in nM with no trailing unit.

COMPOUND | TARGET_OR_TEST_SYSTEM | QUANTITY_UNIT | EC50
Cc1nc(C(C)(F)F)cn1-c1ccc(-c2cc(F)c(CO)c(S(C)(=O)=O)c2)cc1-n1nncc1-c1ccc(OC(F)(F)F)cc1 | LXRβ (Homo sapiens, UniProt P55055) | nM | 467
Cc1nc(-c2cc(-c3cc(F)c(CO)c(S(C)(=O)=O)c3)ccc2-n2cc(C(F)(F)F)nc2C)c(-c2ccc3c(c2)CCC3)o1 | LXRβ (Homo sapiens, UniProt P55055) | nM | 69
Cc1cc(OC(F)(F)F)ccc1-c1cnnn1-c1cc(-c2cccc(S(C)(=O)=O)c2)ccc1-n1cc(C(F)(F)F)nc1C | LXRβ (Homo sapiens, UniProt P55055) | nM | 215
Cc1nc(C(F)(F)F)cn1-c1ccc(-c2cccc(S(C)(=O)=O)c2)cc1-c1ccnn1-c1ccc(Cl)nc1 | LXRβ (Homo sapiens, UniProt P55055) | nM | 572

Consider now this further compound.
Problem: Find the measured EC50 of Cc1nc(C(F)(F)F)cn1-c1ccc(-c2cccc(S(C)(=O)=O)c2)cc1-n1nncc1-c1ccc(F)cn1 and report it.
Solution: 3330

---

- TARGET_OR_TEST_SYSTEM: LXRβ (Homo sapiens, UniProt P55055)
- Construct: Co-transfection expression plasmids, comprising full-length LXRα (pCMX-h LXRα[…] or LXRβ (pCMX-hLXRβ)); expressed in transfected cells; host or cells: CV-1 African Green Monkey Kidney Cells
- Sequence (P55055 1-460): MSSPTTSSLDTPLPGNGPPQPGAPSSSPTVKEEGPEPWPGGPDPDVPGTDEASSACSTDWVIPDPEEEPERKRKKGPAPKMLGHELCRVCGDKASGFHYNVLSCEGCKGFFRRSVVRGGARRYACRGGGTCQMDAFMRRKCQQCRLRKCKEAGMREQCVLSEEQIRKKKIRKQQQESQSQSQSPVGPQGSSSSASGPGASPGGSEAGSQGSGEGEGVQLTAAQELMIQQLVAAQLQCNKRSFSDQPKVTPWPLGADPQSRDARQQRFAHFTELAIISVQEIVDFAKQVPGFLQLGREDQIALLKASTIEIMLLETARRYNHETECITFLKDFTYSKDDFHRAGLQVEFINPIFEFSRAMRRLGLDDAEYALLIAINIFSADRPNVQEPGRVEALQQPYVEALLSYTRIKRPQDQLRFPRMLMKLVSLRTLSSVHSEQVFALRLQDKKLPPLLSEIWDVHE
- Sequence (P19793 1-462 partner): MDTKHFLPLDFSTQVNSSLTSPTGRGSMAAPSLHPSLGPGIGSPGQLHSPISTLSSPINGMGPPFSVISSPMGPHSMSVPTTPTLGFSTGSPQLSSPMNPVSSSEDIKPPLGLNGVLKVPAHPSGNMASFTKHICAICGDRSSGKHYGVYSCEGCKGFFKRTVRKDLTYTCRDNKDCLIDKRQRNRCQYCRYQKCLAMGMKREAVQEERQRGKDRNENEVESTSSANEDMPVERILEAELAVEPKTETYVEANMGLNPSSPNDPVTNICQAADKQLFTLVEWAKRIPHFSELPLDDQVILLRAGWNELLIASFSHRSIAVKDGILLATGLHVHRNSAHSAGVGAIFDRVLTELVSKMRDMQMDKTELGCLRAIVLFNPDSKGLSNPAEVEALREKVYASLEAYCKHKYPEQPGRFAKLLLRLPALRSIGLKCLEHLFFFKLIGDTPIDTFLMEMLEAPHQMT
- EXPERIMENT_NOTES: Co-transfection assay (LXRE luciferase reporter), LXRβ
- Type: cell-based
- MEASUREMENT_SETUP: LXRβ co-transfection; relative to high control 1-(2,4-difluorobenzyl)-2-oxo-6-(4-phenoxyphenyl)-4-(trifluoromethyl)-1,2-dihydropyridine-3-carbonitrile; read-out: % Efficacy
We use 90% as the dividing line for Emax: on or above the line is 1.0, below is 0.0.

COMPOUND | ANSWER_LABEL
COc1ncc(F)cc1-c1oc(C)nc1-c1cc(-c2cc(F)c(CO)c(S(C)(=O)=O)c2)ccc1-n1cc(C(F)(F)F)nc1C | 0.0
Cc1nc(-c2cc(-c3cc(F)c(CO)c(S(C)(=O)=O)c3)ccc2-n2cc(C(F)(F)F)nc2C)c(-c2ccc(OC(F)F)cc2Cl)o1 | 0.0
Cc1cc(-c2cnnn2-c2cc(-c3cccc(S(C)(=O)=O)c3)ccc2-n2cc(C(F)(F)F)nc2C)ccc1F | 1.0
Cc1nc(C(F)(F)F)cn1-c1ccc(-c2cc(F)c(CO)c(S(C)(=O)=O)c2)cc1-n1nncc1-c1ccc(Cl)cc1 | 0.0
Cc1nc(C(F)(F)F)cn1-c1ccc(-c2cccc(S(C)(=O)=O)c2)cc1-n1nncc1-c1ccc(F)c(F)c1 | 1.0

Problem: Quick check, Emax >= 90%? Cc1nc(-c2cc(-c3cc(F)c(CO)c(S(C)(=O)=O)c3)ccc2-n2cc(C(F)(F)F)nc2C)c(-c2ccc(OC(F)F)c(Cl)c2)o1
Solution: 0.0

Problem: Quick check, Emax >= 90%? Cc1nc(C(F)(F)F)cn1-c1ccc(-c2cccc(S(C)(=O)=O)c2)cc1-c1oc(CCO)nc1-c1ccc2c(c1)OC(F)(F)O2
Solution: 0.0

Problem: Quick check, Emax >= 90%? CCc1nc(-c2cc(-c3ccc(CO)c(S(C)(=O)=O)c3)ccc2-n2cc(C(F)(F)F)nc2C)c(-c2ccc(OC(F)(F)F)cc2)o1
Solution: 1.0

Problem: Quick check, Emax >= 90%? Cc1nc(-c2ccc(OC(F)(F)F)cc2)c(-c2cc(-c3cccc([S+](C)[O-])c3)ccc2-n2cc(C(F)(F)F)nc2C)o1 (stereo not shown)
Solution: 1.0

Problem: Quick check, Emax >= 90%? Cc1nc(-c2cc(-c3ccc(CO)c(S(C)(=O)=O)c3)ccc2-n2cc(C(F)(F)F)nc2C)c(-c2cc(F)c(OC(F)F)c(F)c2)o1
Solution: 0.0
